- System: Rattus norvegicus
- method: % Inhibition of angiotensin-I induced pressor response in normotensive rats after intravenous dosing of 1.5 umol/kg
- Type: functional
inhibition in vivo at 1.5 µmol/kg values for the compounds below.
Number only, in %; omit the unit.

smiles_representation=O=C(O)[C@@H]1C[C@@H](Sc2ccccc2)CN1C(=O)CP(=O)(O)CCCCc1ccccc1 quantity_name="inhibition in vivo at 1.5 µmol/kg" result=69

Okay, now this compound:
Noted for `C[C@H](CS)C(=O)N1CCC[C@H]1C(=O)O` : its inhibition in vivo at 1.5 µmol/kg reads 91

* * *

- Test system: Rattus norvegicus
- method: % Inhibition of angiotensin-I induced pressor response in normotensive rats after peroral dosing of 15 umol/kg
- Assay type: functional
- test settings: po
quantity name: inhibition in vivo at 15 µmol/kg (%)
Number only, in %; omit the unit.

Take a look at these entries with their results.
compound="C[C@H](N[C@@H](CCc1ccccc1)C(=O)O)C(=O)N1CCC[C@H]1C(=O)O [ENALAPRILAT ANHYDROUS]" quantity_name="inhibition in vivo at 15 µmol/kg" result=85
compound=O=C(O)[C@@H]1CC2(CN1C(=O)CP(=O)(O)CCCCc1ccccc1)SCCS2 quantity_name="inhibition in vivo at 15 µmol/kg" result=74
compound=O=C(O)[C@@H]1CCCN1C(=O)CP(=O)(O)CCCCc1ccccc1 quantity_name="inhibition in vivo at 15 µmol/kg" result=13
compound=C[C@H](CS)C(=O)N1CCC[C@H]1C(=O)O quantity_name="inhibition in vivo at 15 µmol/kg" result=78

Okay, now this compound:
Noted for `C[C@H](N[C@@H](CCc1ccccc1)C(=O)O)C(=O)N1C[C@@H](Sc2ccccc2)C[C@H]1C(=O)O` : its inhibition in vivo at 15 µmol/kg reads 78

* * *

- system: Angiotensin-converting enzyme (Rattus norvegicus) (UniProt P47820)
- Sequence (P47820 whole entry): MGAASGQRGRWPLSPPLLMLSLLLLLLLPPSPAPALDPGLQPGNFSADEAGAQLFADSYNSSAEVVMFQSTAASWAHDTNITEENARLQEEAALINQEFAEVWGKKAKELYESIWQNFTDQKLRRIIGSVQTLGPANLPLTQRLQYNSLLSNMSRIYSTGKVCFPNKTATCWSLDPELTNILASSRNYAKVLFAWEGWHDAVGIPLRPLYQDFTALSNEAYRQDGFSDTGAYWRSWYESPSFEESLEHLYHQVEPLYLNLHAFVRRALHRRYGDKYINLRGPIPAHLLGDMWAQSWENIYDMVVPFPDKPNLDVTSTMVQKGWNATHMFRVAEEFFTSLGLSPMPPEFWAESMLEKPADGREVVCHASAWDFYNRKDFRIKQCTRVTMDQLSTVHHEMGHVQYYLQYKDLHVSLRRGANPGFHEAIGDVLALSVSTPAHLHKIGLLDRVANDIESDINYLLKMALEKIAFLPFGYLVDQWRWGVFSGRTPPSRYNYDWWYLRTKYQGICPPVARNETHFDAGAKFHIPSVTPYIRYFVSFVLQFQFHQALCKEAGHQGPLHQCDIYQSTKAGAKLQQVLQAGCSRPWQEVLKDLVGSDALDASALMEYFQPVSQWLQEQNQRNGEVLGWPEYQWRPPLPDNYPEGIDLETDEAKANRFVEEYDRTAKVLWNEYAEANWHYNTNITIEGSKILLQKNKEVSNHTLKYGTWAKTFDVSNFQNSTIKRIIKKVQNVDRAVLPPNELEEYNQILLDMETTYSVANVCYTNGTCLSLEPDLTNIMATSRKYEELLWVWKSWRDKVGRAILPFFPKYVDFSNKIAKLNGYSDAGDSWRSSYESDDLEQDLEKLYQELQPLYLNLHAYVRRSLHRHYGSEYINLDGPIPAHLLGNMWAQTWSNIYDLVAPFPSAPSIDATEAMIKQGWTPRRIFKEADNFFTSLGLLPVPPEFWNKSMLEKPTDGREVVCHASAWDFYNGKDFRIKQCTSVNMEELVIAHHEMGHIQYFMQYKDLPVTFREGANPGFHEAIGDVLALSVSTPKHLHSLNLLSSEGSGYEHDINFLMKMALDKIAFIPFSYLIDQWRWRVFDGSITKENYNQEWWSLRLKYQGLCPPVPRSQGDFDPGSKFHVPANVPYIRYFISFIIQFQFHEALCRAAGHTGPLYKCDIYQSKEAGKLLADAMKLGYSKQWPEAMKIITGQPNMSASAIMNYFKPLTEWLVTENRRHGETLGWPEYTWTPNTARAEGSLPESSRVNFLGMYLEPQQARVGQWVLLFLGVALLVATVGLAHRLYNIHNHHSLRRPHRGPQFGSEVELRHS
- method: In vitro inhibition of rat Angiotensin I converting enzyme
quantity name: log10(T50) (log10 of the value in nM)
Recorded T50 (log10, nM)

smiles_representation=O=C(O)[C@@H]1CCCN1C(=O)CP(=O)(O)CCCCc1ccccc1 quantity_name=log10(T50) result=2.26
smiles_representation=O=C(O)[C@@H]1C[C@@H](c2ccccc2)CN1C(=O)CP(=O)(O)CCCCc1ccccc1 quantity_name=log10(T50) result=2.08
smiles_representation=O=C(O)[C@@H]1C[C@@H](Sc2ccccc2)CN1C(=O)CP(=O)(O)CCCCc1ccccc1 quantity_name=log10(T50) result=1.23

Noted for `O=C(O)[C@@H]1C[C@H](c2ccccc2)CN1C(=O)CP(=O)(O)CCCCc1ccccc1` : its log10(T50) reads 0.85

Noted for `O=C(O)[C@@H]1C[C@H](C2CCCCC2)CN1C(=O)CP(=O)(O)CCCCc1ccccc1` : its log10(T50) reads 0.85

Noted for `O=C(O)[C@@H]1C[C@H](Sc2ccccc2)CN1C(=O)CP(=O)(O)CCCCc1ccccc1` : its log10(T50) reads 1.30

Noted for `CO[C@@H]1C[C@@H](C(=O)O)N(C(=O)CP(=O)(O)CCCCc2ccccc2)C1` : its log10(T50) reads 2.00

Noted for `CS[C@@H]1C[C@@H](C(=O)O)N(C(=O)CP(=O)(O)CCCCc2ccccc2)C1` : its log10(T50) reads 1.46

Noted for `O=C(O)[C@@H]1C[C@H](Cc2ccccc2)CN1C(=O)CP(=O)(O)CCCCc1ccccc1` : its log10(T50) reads 1.00

Noted for `CO[C@H]1C[C@@H](C(=O)O)N(C(=O)CP(=O)(O)CCCCc2ccccc2)C1` : its log10(T50) reads 1.78

Noted for `CS[C@H]1C[C@@H](C(=O)O)N(C(=O)CP(=O)(O)CCCCc2ccccc2)C1` : its log10(T50) reads 1.51

Where do these numbers come from? They come from ChEMBL document CHEMBL1124128.
